# System: MS2 coat protein
# TEST_SUMMARY: apparent KD of MS2 coat protein; designed switch direction (-1 OFF switch, 1 ON switch): 1; higher = weaker reporter binding
# TEST_PARAMETERS: Eterna round: R95; input ligand: FMN 200 uM
Task for the reader: assign each of the following sequences its reported apparent KD of MS2 coat protein.
Please give the number followed by its unit.

UUUAGUUGCGGGCAGGAUAUGUAUUAAAAUACAUGAGGAUCACCCAUGUGAGGUCAUAAAGACCUACAGAAGGGCCAAUCGCGAC [Laonerce - 16] (puzzle: Same State 2) yielded apparent KD of MS2 coat protein of 0.0165 µM

AAGUAACAUGAGGAUCACCCAUGUGAGGUGAGCGUAGGAUAUCGAGGAGGUAGGGUAGGUCGAGAAGGACGAGAAG [JR_SS1_Sub095] (puzzle: Same State 1) yielded apparent KD of MS2 coat protein of 0.323 µM

AGUCCACCCUGAGGUGGACAAAAGCAUGUACAUGAGGAUCACCCAUGUCAUGUACAAGCUUUUUGCUCGUCUUAAUA [Mat - hsa-mir-208a - Mod of JL - D42] (puzzle: Sensor for hsa-mir-208a) yielded apparent KD of MS2 coat protein of 0.589 µM

AGUCCAGCCUGAGCUGGACAAAAGCAUGUACAUGAGGAUCACCCAUGUUCAUGUACAAGCUUUUUGCUCGUCGGAAU [Mat - hsa-mir-208a - Mod of JL - 49] (puzzle: Sensor for hsa-mir-208a) yielded apparent KD of MS2 coat protein of 0.762 µM

Reference source: the supplement of paper PMC9170038
